Each record here notes measured Ki.
biological target: melanocortin 1 receptor (MC1R) (UniProt Q01726); assay: 125I-NDP-MSH competition, HEK293 membranes
Sequence (Q01726 whole entry): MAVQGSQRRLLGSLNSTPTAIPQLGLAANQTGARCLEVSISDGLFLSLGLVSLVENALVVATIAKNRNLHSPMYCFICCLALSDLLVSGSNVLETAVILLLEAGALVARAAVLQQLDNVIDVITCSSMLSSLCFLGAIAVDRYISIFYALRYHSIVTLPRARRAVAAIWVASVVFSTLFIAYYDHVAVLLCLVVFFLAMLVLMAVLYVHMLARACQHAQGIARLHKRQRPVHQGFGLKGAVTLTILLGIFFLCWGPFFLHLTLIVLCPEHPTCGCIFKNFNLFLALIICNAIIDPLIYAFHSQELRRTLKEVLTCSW
[ ]: non-standard residue; d: D form. dCha = N[C@H](CC1CCCCC1)C(=O)O
readout_name: Ki (µM)

>>> quantitative_readout("VPKGWRXHEMSYS (N-terminal acetyl (Ac); C-terminal amide; 4-Nitro-D-Phe at 7; D-isomers at all residues except Gly 4) [peptide 871]")
0.324
>>> quantitative_readout("VPXGWRFHEMSYS (N-terminal acetyl (Ac); C-terminal amide; D-Norleucine at 3; D-isomers at all residues except Gly 4) [peptide 858]")
0.018
>>> quantitative_readout("VPKGWRXHEMSYS (N-terminal acetyl (Ac); C-terminal amide; 3-pyridyl-D-Alanine at 7; D-isomers at all residues except Gly 4) [peptide 867]")
0.48
>>> quantitative_readout("Ac-[dV][dP][dK]G[dW][dR][dCha][dH][dS][dI][dI][dS][dS]-NH2 (SMILES CC[C@@H](C)[C@@H](NC(=O)[C@@H](CO)NC(=O)[C@@H](Cc1c[nH]cn1)NC(=O)[C@@H](CC1CCCCC1)NC(=O)[C@@H](CCCNC(=N)N)NC(=O)[C@@H](Cc1c[nH]c2ccccc12)NC(=O)CNC(=O)[C@@H](CCCCN)NC(=O)[C@H]1CCCN1C(=O)[C@H](NC(C)=O)C(C)C)C(=O)N[C@@H](C(=O)N[C@H](CO)C(=O)N[C@H](CO)C(N)=O)[C@H](C)CC) [RI α-MSH analog 891]")
0.00043
